readout: melting point

Reference set, count: 3
molecule: COc1cccc(OC)c1-c1ccc(C[C@H](NC(=O)c2c(Cl)cc(F)cc2Cl)C(=O)O)cc1 [Example 320]
value.observed: 206 to 207 °C

molecule: COc1cc(C(=O)NCc2ccccc2)cc(OC)c1-c1ccc(C[C@H](NC(=O)c2c(Cl)cccc2Cl)C(=O)O)cc1 [Example 167]
value.observed: 153 to 154 °C

molecule: COc1cc(NS(C)(=O)=O)cc(OC)c1-c1ccc(C[C@H](NC(=O)c2c(Cl)cccc2Cl)C(=O)O)cc1 [Example 163]
value.observed: 154 to 155 °C

Would you kindly look at the next entry?
[in] What value of melting point has been recorded for this entry: COc1cccc(OC)c1-c1ccc(C[C@H](NC(=O)c2c(Cl)cc(Br)cc2Cl)C(=O)O)cc1 [Example 207]
[out] 184 to 185 °C
